Recorded IC50 values for a group of binders are listed next.
measured_on: T1, human PD-1 expressed on cells (CHO TREX human PD1 cell line, full-length human PD-1 sequence) (human, UniProt Q15116 21-288)
T1 construct: Also used for human PD-1 on Jurkat reporter cells, on PathHunter cells and on PHA-stimulated human CD4+ T cells; also called CHO human PD1 cells; CHO human PD-1 cells
assay_summary: FMAT: inhibition of human Fc tagged human PD-L1 (400 pM) binding to CHO human PD-1 cells

binder: 1.57b-4GS-1.1a (other, Biparatopic VH-linker-VH) QVQLVESGGGLVKPGGSLRLSCAASGFTFSDNSMTWMRQAPGKGLEWVSYISSGGGVIFYADSVKGRFTISRDNAKNSLYLQMNSLRADDTAVYYCAREAPLRLGESPHDAFDISGQGTMVTVSSGGGGSGGGGSGGGGSGGGGSEVQLLESGGGSVQPGRSLRLSCAASGFTFDDHAMHWVRQAPGKGLEWVSGISWNSGSMGYADSVKDRFTISRDNAKSSLYLQMNSLRAEDTALYYCVREKGPGLTGSTADYYGLDVWGQGTMVTVSS
units_text: nM
IC50: 1.3
//
binder: 1.57b (VHH) VHH: QVQLVESGGGLVKPGGSLRLSCAASGFTFSDNSMTWMRQAPGKGLEWVSYISSGGGVIFYADSVKGRFTISRDNAKNSLYLQMNSLRADDTAVYYCAREAPLRLGESPHDAFDISGQGTMVTVSS
units_text: nM
IC50: 4.2
//
binder: 1.1b (VHH, also called Humabody 1.1b) VHH: QVQLVESGGGLVKPGGSLRLSCAASGFTFSDYTMTWMRQAPGKGLEWVSYISTGGTIKYYTDSVKGRFTISRDNAKNSLYLQMNSLRADDTAVYYCAREAPLRLGESPHDAFDIWGQGTMVTVSS
units_text: nM
IC50: 23
//
binder: 1.1b-4GS-1.1a (other, Biparatopic VH-linker-VH) QVQLVESGGGLVKPGGSLRLSCAASGFTFSDYTMTWMRQAPGKGLEWVSYISTGGTIKYYTDSVKGRFTISRDNAKNSLYLQMNSLRADDTAVYYCAREAPLRLGESPHDAFDIWGQGTMVTVSSGGGGSGGGGSGGGGSGGGGSEVQLLESGGGSVQPGRSLRLSCAASGFTFDDHAMHWVRQAPGKGLEWVSGISWNSGSMGYADSVKDRFTISRDNAKSSLYLQMNSLRAEDTALYYCVREKGPGLTGSTADYYGLDVWGQGTMVTVSS
units_text: nM
IC50: 5.6
